Values from the Human Domainome abundance scans (Beltran et al. 2025)

B1: Nuclear receptor subfamily 4 group A member 2, residues 260 to 336; numbered along this chain, P43354 (parent)
chain: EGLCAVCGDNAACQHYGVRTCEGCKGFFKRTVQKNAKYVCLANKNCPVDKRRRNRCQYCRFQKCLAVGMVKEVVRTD

Variants of: B1
PROTOCOL_DESCRIPTION: abundance fitness (aPCA) (normalised: wild type 0, dead -1); higher = more abundant; growth selection in yeast, the domain comes from the species named
APPLIED_CONDITIONS: Homo sapiens
PROPERTY: abundance fitness
Format: numeric value only, no unit, no commentary.

Example variants with recorded abundance fitness:
[
  {
    "VARIANT_LABEL": "G17P",
    "abundance fitness": -0.841
  },
  {
    "VARIANT_LABEL": "K50P",
    "abundance fitness": 0.356
  },
  {
    "VARIANT_LABEL": "G23A",
    "abundance fitness": -0.136
  }
]

// L41R : abundance fitness value = -0.064

Lab note: measured abundance fitness of V73H was 0.014

The reported abundance fitness of the variant C13A was 0.1

Per the record, V48A has abundance fitness of -0.409

Please fill in: abundance fitness reported for K44H = -0.129

Recorded abundance fitness (variant Q14V ): 0.095

Recorded result, K25P , abundance fitness: -0.675

For this variant ( D77C ), measured abundance fitness is -0.061
